# tested-on: T1, human a-PD-L1 Fc (Sino Biological, 10084-H02H, LC11NO2402) (human, UniProt Q9NZQ7 19-239)
# T1 construct: Bought Fc fusion immobilised on the SPR chip; Printed as 'a-PD-L1 Fc' but used as the antigen (ligand) for the anti-PD-L1 scFvs; also called Human PD-L1; not shown: Fc part
# assay: SPR, PD-L1 Fc immobilised, scFv analyte, 1:1 fit
result-type: pKd
// pKd is dimensionless: -log10 of concentration (M)

Query: // query pKd value for entry PRO3308 (scFv 37-20-B03-sc09.1_(L12A, T101S, L144K, T146Q)) (scFv, PRO2230 variant; VH substitutions, AHo numbering; also called PRO2230 L12A-T101S-L144K-T146Q) scFv: DIQMTQSPASLSASVGDRVTITCQASQSIGTYLAWYQQKPGKPPKLLIYRAFILASGVPSRFSGSGSGTDFTLTISSLQPEDFATYYCQSNFYSDSTTIGPNAFGTGTKVTVLGGGGGSGGGGSGGGGSGGGGSEVQLVESGGGAVQPGGSLRLSCAASGFSFNSDYWIYWVRQAPGKGLEWIASIYGGSSGNTQYASWAQGRFTISRDNSKNTVYLQMNSLRAEDSAVYFCARGYVDYGGATDLWGQGTKVQVSS
Result: 10.44

Query: Which pKd reading was recorded for the binder PRO2951 (scFv 37-20-B03-sc09.1_(T101R)) (scFv, PRO2230 variant; VH substitution, AHo numbering; also called PRO2230 T101R) scFv: DIQMTQSPASLSASVGDRVTITCQASQSIGTYLAWYQQKPGKPPKLLIYRAFILASGVPSRFSGSGSGTDFTLTISSLQPEDFATYYCQSNFYSDSTTIGPNAFGTGTKVTVLGGGGGSGGGGSGGGGSGGGGSEVQLVESGGGLVQPGGSLRLSCAASGFSFNSDYWIYWVRQAPGKGLEWIASIYGGSSGNTQYASWAQGRFTISRDNSKNTVYLQMNSLRAEDRAVYFCARGYVDYGGATDLWGQGTLVTVSS ?
Result: 10.38

Query: Consider the binder PRO3314 (scFv 37-20-B03-sc09.1_(T101Q, T146Q)) (scFv, PRO2230 variant; VH substitutions, AHo numbering; also called PRO2230 T101Q-T146Q) scFv: DIQMTQSPASLSASVGDRVTITCQASQSIGTYLAWYQQKPGKPPKLLIYRAFILASGVPSRFSGSGSGTDFTLTISSLQPEDFATYYCQSNFYSDSTTIGPNAFGTGTKVTVLGGGGGSGGGGSGGGGSGGGGSEVQLVESGGGLVQPGGSLRLSCAASGFSFNSDYWIYWVRQAPGKGLEWIASIYGGSSGNTQYASWAQGRFTISRDNSKNTVYLQMNSLRAEDQAVYFCARGYVDYGGATDLWGQGTLVQVSS and give its measured pKd.
Result: 10.57
